Source listed as ChEMBL document CHEMBL1201861.

# System: SAS;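 note: growth inhibition of SAS cells, read out with a cell viability assay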
# assaySummary: cells
# Assay type: functional, cell-based, Homo sapiens
# conditions: Homo sapiens, SAS
# Description: SANGER: Inhibition of human SAS cell growth in a cell viability assay.
assayEndpoint: IC50 (µM)
Numbers only; they are read as µM.

Solved entries (count: 4):
[
  {
    "compound": "CN(C)C/C=C/C(=O)Nc1cc2c(Nc3ccc(F)c(Cl)c3)ncnc2cc1O[C@H]1CCOC1",
    "val": 0.484
  },
  {
    "compound": "Nc1ccn([C@@H]2O[C@H](CO)[C@@H](O)[C@@H]2O)c(=O)n1",
    "val": 0.108
  },
  {
    "compound": "COc1cc([C@@H]2c3cc4c(cc3[C@@H](O[C@@H]3O[C@@H]5CO[C@@H](C)O[C@H]5[C@H](O)[C@H]3O)[C@H]3COC(=O)[C@H]23)OCO4)cc(OC)c1O [ETOPOSIDE]",
    "val": 1.27
  },
  {
    "compound": "CC(=O)O[C@@]12CO[C@@H]1C[C@H](O)[C@@]1(C)C(=O)[C@H](O)C3=C(C)[C@@H](OC(=O)[C@H](O)[C@@H](NC(=O)OC(C)(C)C)c4ccccc4)C[C@@](O)([C@@H](OC(=O)c4ccccc4)[C@H]21)C3(C)C",
    "val": 0.00134
  }
]

Qu. Any idea what its IC50 is? The compound is COc1cc(F)c(F)c(Nc2ccc(I)cc2F)c1NS(=O)(=O)C1(CC(O)CO)CC1 (stereo not given)
Ans. 3.94
